For each of the compounds below, state its viability at 48 h, 30 µM.
- test: Cytotoxicity against human PBMC cells assessed as cell survival at 30 uM incubated for 48 hrs by Cell Titer-Glo luminescent assay relative to control
- Format: toxicity, cell-based
- applied-conditions: read-out: Survival
Give the quantity in %, number only.

Prompt line: Hello, please tell me recorded viability at 48 h, 30 µM for this one: O=C1CCC2(CC(c3ccccc3I)=NO2)C(=O)N1 (stereo unspecified)
Response line: 100

Prompt line: Quote viability at 48 h, 30 µM reported for COc1ccc(C2=NOC3(CCC(=O)NC3=O)C2)c(OC)c1OC (stereo unspecified) please.
Response line: 82.4

Prompt line: Please give the documented viability at 48 h, 30 µM of O=C1CCC2(CC(c3ccccc3F)=NO2)C(=O)N1 (stereo unspecified)
Response line: 88.6

Prompt line: Please indicate viability at 48 h, 30 µM recorded for COc1ccccc1C1=NOC2(CCC(=O)NC2=O)C1 (stereo unspecified)
Response line: 100

Prompt line: Output measured viability at 48 h, 30 µM for this item: O=C1CCC2(CC(c3ccccc3[N+](=O)[O-])=NO2)C(=O)N1 (stereo unspecified)
Response line: 71.5

Prompt line: Find the measured viability at 48 h, 30 µM of O=C1CCC2(CC(c3ccc(Cl)cc3Cl)=NO2)C(=O)N1 (stereo unspecified) and report it.
Response line: 100

Prompt line: Provide viability at 48 h, 30 µM value for the following compound: O=C1CCC2(CC(c3c(Cl)cccc3Cl)=NO2)C(=O)N1 (stereo unspecified)
Response line: 88.6

Prompt line: Given the compound O=C1CCC2(CC(C3CCCC3)=NO2)C(=O)N1 (stereo unspecified) , write its reported viability at 48 h, 30 µM.
Response line: 89.9

Prompt line: Name the recorded viability at 48 h, 30 µM of the compound listed here: O=C1CCC2(CC(c3ccccc3Br)=NO2)C(=O)N1 (stereo unspecified)
Response line: 74.9

Prompt line: Hello, please tell me recorded viability at 48 h, 30 µM for this one: CCC(CC)C1=NOC2(CCC(=O)NC2=O)C1 (stereo unspecified)
Response line: 91.2

Prompt line: Read off the recorded viability at 48 h, 30 µM for CCCC1=NOC2(CCC(=O)NC2=O)C1 (stereo unspecified)
Response line: 100

---

- test: Lipophilicity, logP of compound by HPLC analysis
- Type: physicochemical
observable: logP
Field format: numeric only.

Prompt line: For the compound O=C1CCC2(CC(c3ccccc3Cl)=NO2)C(=O)N1 (centres undefined) , give its reported logP.
Response line: 1.64

Prompt line: Item O=C1CCC2(CC(c3c(Cl)cccc3Cl)=NO2)C(=O)N1 (centres undefined) : provide logP
Response line: 1.96

Prompt line: Provide only the value of recorded logP for O=C1CCC2(CC(c3ccccc3[N+](=O)[O-])=NO2)C(=O)N1 (centres undefined)
Response line: 1.23

Prompt line: Identify the reported logP for the following entry. CCC(CC)C1=NOC2(CCC(=O)NC2=O)C1 (centres undefined)
Response line: 1.6

Prompt line: # return recorded logP for input O=C1CCC2(CC(c3ccccc3I)=NO2)C(=O)N1 (centres undefined)
Response line: 1.75

Prompt line: Kindly indicate its recorded logP. Item: O=C1CCC(N2C(=O)c3ccccc3C2=O)C(=O)N1 (centres undefined) [THALIDOMIDE]
Response line: 0.3

Prompt line: Specify measured logP for O=C1CCC2(CC(C3CCCCC3)=NO2)C(=O)N1 (centres undefined) .
Response line: 1.87

Prompt line: Give reported logP value for O=C1CCC2(CC(C3CCCC3)=NO2)C(=O)N1 (centres undefined)
Response line: 1.28

Prompt line: Give logP for the following compound: O=C1CCC2(CC(c3ccccc3F)=NO2)C(=O)N1 (centres undefined)
Response line: 1.37

---

- Test system: KMS-12-PE
- test: Cytotoxicity against human KMS-12-PE cells assessed as cell survival at 30 uM incubated for 48 hrs by Cell Titer-Glo luminescent assay relative to control
- Format: functional
- applied-conditions: read-out: Survival
observable: viability at 30 µM (%)
Express the result in % but write the number alone.

Prompt line: Let me know recorded viability at 30 µM for O=C1CCC2(CC(c3ccccc3F)=NO2)C(=O)N1 (stereo not given) , thanks.
Response line: 89.2

Prompt line: Specify reported viability at 30 µM for the compound shown: CC(C)(C)C1=NOC2(CCC(=O)NC2=O)C1 (stereo not given)
Response line: 100

Prompt line: # return recorded viability at 30 µM for input O=C1CCC2(CC(c3ccccc3[N+](=O)[O-])=NO2)C(=O)N1 (stereo not given)
Response line: 88.5

Prompt line: Given COc1ccccc1C1=NOC2(CCC(=O)NC2=O)C1 (stereo not given) , respond with its viability at 30 µM.
Response line: 86.6

Prompt line: Output viability at 30 µM of O=C1CCC2(CC(c3ccccc3Br)=NO2)C(=O)N1 (stereo not given)
Response line: 97.8

---

Consider the following molecules; for each one, report its viability at 30 µM.
- System: MM1.S
- test: Cytotoxicity against human MM1.S cells assessed as cell survival at 30 uM incubated for 48 hrs by Cell Titer-Glo luminescent assay relative to control
- Format: functional
- applied-conditions: read-out: Survival
Your answer is read as %, so omit the unit and give the number.

Prompt line: Give the measured viability at 30 µM for O=C1CCC2(CC(C3CCCC3)=NO2)C(=O)N1 (stereo unspecified)
Response line: 62.2

Prompt line: Could you please provide reported viability at 30 µM for COc1ccccc1C1=NOC2(CCC(=O)NC2=O)C1 (stereo unspecified) ? Thanks!
Response line: 94.8

Prompt line: Recall and state the measured viability at 30 µM for O=C1CCC2(CC(c3ccccc3Br)=NO2)C(=O)N1 (stereo unspecified) .
Response line: 88.3

Prompt line: Answer with the recorded viability at 30 µM for the molecule listed here: O=C1CCC(N2C(=O)c3ccccc3C2=O)C(=O)N1 (stereo unspecified) [THALIDOMIDE]
Response line: 11.4

Prompt line: Please give the documented viability at 30 µM of CC(C)(C)C1=NOC2(CCC(=O)NC2=O)C1 (stereo unspecified)
Response line: 75.6

Prompt line: Provide measured viability at 30 µM value, entry: O=C1CCC2(CC(c3cccnc3)=NO2)C(=O)N1 (stereo unspecified)
Response line: 23.2

---

- Tested on: MM1.S
- test: Cytotoxicity against human MM1.S cells assessed as cell survival at 30 uM incubated for 48 hrs by Cell Titer-Glo luminescent assay relative to control
- Format: functional
- applied-conditions: read-out: Survival
# note: exactly 80% is not below, so it is not met; use met for viability at 30 µM strictly under it

Prompt line: Given the entry O=C1CCC2(CC(c3ccc(C(=O)O)cc3)=NO2)C(=O)N1 (stereo not given) , would its reported viability at 30 µM be below 80%?
Response line: not met

Prompt line: Record CCCC1=NOC2(CCC(=O)NC2=O)C1 (stereo not given) : is its viability at 30 µM strictly below 80%?
Response line: met

Prompt line: Input O=C1CCC2(CC(c3ccc(Cl)cc3Cl)=NO2)C(=O)N1 (stereo not given) ; condition: viability at 30 µM strictly below 80%. Does it hold?
Response line: met

---

- test: Cytotoxicity against human PBMC cells assessed as cell survival at 30 uM incubated for 48 hrs by Cell Titer-Glo luminescent assay relative to control
- Format: toxicity, cell-based
- applied-conditions: read-out: Survival
Provide the recorded viability at 48 h, 30 µM for the entries that follow.
Just the number in %, nothing appended.

Prompt line: Look up and report measured viability at 48 h, 30 µM for this entry: O=C1CCC2(CC(c3ccccc3Cl)=NO2)C(=O)N1 (stereo unspecified)
Response line: 100

Prompt line: Given the molecule CC(C)(C)C1=NOC2(CCC(=O)NC2=O)C1 (stereo unspecified) , write its reported viability at 48 h, 30 µM.
Response line: 100

Prompt line: Please report viability at 48 h, 30 µM for the following molecule: O=C1CCC2(CC(c3ccc(C(=O)O)cc3)=NO2)C(=O)N1 (stereo unspecified)
Response line: 99.5

Prompt line: Please report viability at 48 h, 30 µM for the following molecule: O=C1CCC2(CC(C3CCCCC3)=NO2)C(=O)N1 (stereo unspecified)
Response line: 100

Prompt line: Provide only the value of recorded viability at 48 h, 30 µM for O=C1CCC2(CC(c3cccnc3)=NO2)C(=O)N1 (stereo unspecified)
Response line: 83.6

Prompt line: Please supply the value of reported viability at 48 h, 30 µM for the item O=C1CCC(N2C(=O)c3ccccc3C2=O)C(=O)N1 (stereo unspecified) [THALIDOMIDE]
Response line: 94.2

---

- test: Lipophilicity, logP of compound by HPLC analysis
- Type: physicochemical
For each record, write down the corresponding logP.
Number, no unit, nothing else.

Prompt line: Kindly indicate its recorded logP. Item: O=C1CCC2(CC(c3ccc(Cl)cc3Cl)=NO2)C(=O)N1 (stereo unspecified)
Response line: 2.68

Prompt line: Supply measured logP of COc1ccc(C2=NOC3(CCC(=O)NC3=O)C2)c(OC)c1OC (stereo unspecified) in your reply.
Response line: 2.67

Prompt line: Please look at this compound and report its logP: COc1ccccc1C1=NOC2(CCC(=O)NC2=O)C1 (stereo unspecified)
Response line: 2.22

Prompt line: Give the reported logP for this compound. CCCC1=NOC2(CCC(=O)NC2=O)C1 (stereo unspecified)
Response line: 0.87

Prompt line: Name the recorded logP of the compound listed here: O=C1CCC2(CC(c3ccccc3Br)=NO2)C(=O)N1 (stereo unspecified)
Response line: 1.68

Prompt line: Give the reported value of logP for this record: CC(C)(C)C1=NOC2(CCC(=O)NC2=O)C1 (stereo unspecified)
Response line: 1.09
